Listed below: melting point values for each entry.

Reference set (6 entries):
- compound: "CCCCOCCOc1ccc(-c2ccc3c(c2)C=C(C(=O)Nc2ccc([C@H](O)c4cccc[n+]4[O-])cc2)CCN3CCC)cc1"
  value-reported: "87 to 89 °C"
- compound: "CCCCOCCOc1ccc(-c2ccc3c(c2)C=C(C(=O)Nc2ccc(N(C)Cc4nncn4CCC)cc2)CCN3CC(C)C)cc1"
  value-reported: "134 to 136 °C"
- compound: "CCCCOCCOc1ccc(-c2ccc3c(c2)C=C(C(=O)Nc2ccc(CCCn4cnnc4)cc2)CCN3CCC)cc1"
  value-reported: "191 to 194 °C"
- compound: "CCCCOCCOc1ccc(-c2ccc3c(c2)C=C(C(=O)Nc2ccc(C/C(=N/O)c4nccn4CCC)cc2)CCN3CC(C)C)cc1"
  value-reported: "187.5 to 189.5 °C"
- compound: "CCCCOCCOc1ccc(-c2ccc3c(c2)C=C(C(=O)Nc2ccc(C(O)c4ccc(Cl)cn4)cc2)CCN3C(=O)C(F)(F)F)cc1 (stereo not shown)"
  value-reported: "144 to 146 °C"
- compound: "CCCCOCCOc1ccc(-c2ccc3c(c2)C=C(C(=O)Nc2ccc(C(O)c4cccc[n+]4[O-])c(C)c2)CCN3)cc1 (stereo not shown)"
  value-reported: "179 to 182 °C (dec.)"

Could you share which melting point value was measured for CCCCOCCOc1ccc(-c2ccc3c(c2)C=C(C(=O)Nc2ccc(C(O)c4cc(C)cc[n+]4[O-])c(OC)c2)CCN3CC(C)C)cc1 (stereo not shown) ?
174 to 176 °C

Could you share which melting point value was measured for "CCCCOCCOc1ccc(-c2ccc3c(c2)C=C(C(=O)Nc2ccc(/C(Cc4nccn4CCC)=N/OC)cc2)CCN3CC(C)C)cc1" ?
159 to 161 °C

Could you share which melting point value was measured for "CCCCOCCOc1ccc(-c2ccc3c(c2)C=C(C(=O)Nc2ccc([C@H](O)c4ccccn4)cc2)CCN3S(C)(=O)=O)cc1" ?
158 to 160 °C

* * *

observation-type: melting point

Reference set (5 entries):
- compound: "CCCCOCCOc1ccc(-c2ccc3c(c2)C=C(C(=O)Nc2ccc(/C(Cc4nccn4CCC)=N/O)cc2)CCN3CC(C)C)cc1 [Compound 450]"
  melting point: "153.5 to 154.5 °C"
- compound: "CCCCOCCOc1ccc(-c2ccc3c(c2)C=C(C(=O)Nc2ccc(C(O)c4cc(C)cc[n+]4[O-])c(C(F)(F)F)c2)CCN3CCC)cc1 (stereo not drawn) [Compound 17]"
  melting point: "103 to 105 °C"
- compound: "CCCCOCCOc1ccc(-c2ccc3c(c2)C=C(C(=O)Nc2ccc([S+]([O-])Cc4nncn4CCCC)cc2)CCN3CC(C)C)cc1 (stereo not drawn) [Compound 143]"
  melting point: "178 to 180 °C"
- compound: "CCCCOCCOc1ccc(-c2ccc3c(c2)C=C(C(=O)Nc2ccc(SCc4nncn4CC(C)C)cc2)CCN3CCC)cc1 [Compound 32]"
  melting point: "130 to 132 °C"
- compound: "CCCCOCCOc1ccc(-c2ccc3c(c2)C=C(C(=O)Nc2ccc([S+]([O-])Cc4nncn4C)cc2)CCN3CC(C)C)cc1 (stereo not drawn) [Compound 131]"
  melting point: "103 to 105 °C"

Let us examine a further case.
Could you share which melting point value was measured for CCCCOCCOc1ccc(-c2ccc3c(c2)C=C(C(=O)Nc2ccc([S+]([O-])c4cccc5nccn45)cc2)CCN3CC(C)C)cc1 (stereo not drawn) [Compound 169] ?
162 to 164 °C

* * *

observation-type: melting point

- compound: "CCCCOCCOc1ccc(-c2ccc3c(c2)C=C(C(=O)Nc2ccc(C(O)c4ncccc4OCCC)cc2)CCN3C(=O)C(F)(F)F)cc1 (stereo not drawn) [Compound 111]"
  value-reported: "154 to 157 °C"
- compound: "CCCCOCCOc1ccc(-c2ccc3c(c2)C=C(C(=O)Nc2ccc([S+]([O-])Cc4ncon4)cc2)CCN3CC(C)C)cc1 (stereo not drawn) [Compound 129]"
  value-reported: "142 to 144 °C"
- compound: "CCCCOCCOc1ccc(-c2ccc3c(c2)C=C(C(=O)Nc2ccc(CSc4nncs4)cc2)CCN3CC(C)C)cc1 [Compound 115]"
  value-reported: "77 to 79 °C"
- compound: "CCCCOCCOc1ccc(-c2ccc3c(c2)C=C(C(=O)Nc2ccc([C@H](O)c4cccc[n+]4[O-])cc2)CCN3C(=O)C(F)(F)F)cc1 [Compound 80]"
  value-reported: "107 to 110 °C"
- compound: "CCCCOCCOc1ccc(-c2ccc3c(c2)C=C(C(=O)Nc2ccc(SCc4n[nH]c(=O)n4CCC)cc2)CCN3CC(C)C)cc1 [Compound 65]"
  value-reported: "98 to 101 °C"

Could you share which melting point value was measured for CCCCOCCOc1ccc(-c2ccc3c(c2)C=C(C(=O)Nc2ccc([S+]([O-])Cc4c(C)nc5ccccn45)cc2)CCN3CCC)cc1 (stereo not drawn) [Compound 165] ?
134 to 137 °C

* * *

Target: human CCR5 chemokine receptor (Homo sapiens, UniProt P51681)
Construct: expressed in transfected cells
Sequence (P51681 whole entry): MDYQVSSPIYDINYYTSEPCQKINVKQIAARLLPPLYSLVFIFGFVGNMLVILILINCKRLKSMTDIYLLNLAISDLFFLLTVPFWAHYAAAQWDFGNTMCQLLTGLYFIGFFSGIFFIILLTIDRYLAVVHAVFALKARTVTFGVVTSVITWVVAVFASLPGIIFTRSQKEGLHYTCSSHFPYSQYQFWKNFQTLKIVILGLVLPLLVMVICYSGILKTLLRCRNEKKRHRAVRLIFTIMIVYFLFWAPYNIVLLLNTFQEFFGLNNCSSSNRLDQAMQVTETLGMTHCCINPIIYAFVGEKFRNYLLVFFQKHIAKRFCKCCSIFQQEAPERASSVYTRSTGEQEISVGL
Assay: Inhibition of [125I]-RANTES binding to CCR5/CHO cells (CCR5 antagonistic activity)
Conditions: test compound 1 μM, [125I]-RANTES as ligand, room temperature, 40 minutes
observation-type: Binding Inhibitory Ratio (%)

- compound: "CCCCOCCOc1ccc(-c2ccc3c(c2)C=C(C(=O)Nc2ccc(SCc4nccn4CCCO)cc2)CCN3CC(C)C)cc1"
  value-reported: 100
- compound: "CCCCOCCOc1ccc(-c2ccc3c(c2)C=C(C(=O)Nc2ccc([S+]([O-])Cc4cncn4CCC)cc2)CCN3CC(C)C)cc1 (single isomer, unassigned; (-))"
  value-reported: 94
- compound: "C#CCn1cncc1C[S+]([O-])c1ccc(NC(=O)C2=Cc3cc(-c4ccc(OCCOCCCC)cc4)ccc3N(CC(C)C)CC2)cc1 (centres unmarked)"
  value-reported: 100
- compound: "CCCCOCCOc1ccc(-c2ccc3c(c2)C=C(C(=O)Nc2ccc([S+]([O-])Cc4nccn4CCCO)cc2)CCN3CC(C)C)cc1 (centres unmarked)"
  value-reported: 100
- compound: "CCCCOCCOc1ccc(-c2ccc3c(c2)C=C(C(=O)Nc2ccc([S+]([O-])Cc4cncn4CCC)cc2)CCN3CCC)cc1 (single isomer, unassigned; (-))"
  value-reported: 87

* * *

Molecular target: human CCR5 chemokine receptor (Homo sapiens, UniProt P51681)
Construct: expressed in transfected cells
Assay: Inhibition of [125I]-RANTES binding to CCR5/CHO cells (CCR5 antagonistic activity)
Settings: 40 min, test compound 1 μM, [125I]-RANTES as ligand, room temperature, read-out: Binding Inhibitory Ratio (%)
observation-type: inhibition at 1 µM (%)

- compound: "CCCCOCCOc1ccc(-c2ccc3c(c2)C=C(C(=O)Nc2ccc([S+]([O-])Cc4nncn4CCC)cc2)CCN3CCC)cc1 (stereo not drawn)"
  measurement-target: "human CCR5 chemokine receptor (Homo sapiens, UniProt P51681)"
  inhibition at 1 µM / %: 100
- compound: "CCCCOCCOc1ccc(-c2ccc3c(c2)C=C(C(=O)Nc2ccc([S+]([O-])Cc4cncn4CCC)cc2)CCN3CCC)cc1 (stereo not drawn)"
  measurement-target: "human CCR5 chemokine receptor (Homo sapiens, UniProt P51681)"
  inhibition at 1 µM / %: 92
- compound: "CCCCOCCOc1ccc(-c2ccc3c(c2)C=C(C(=O)Nc2ccc(C(O)c4cccc[n+]4[O-])c(C(F)(F)F)c2)CCN3CCC)cc1 (stereo not drawn)"
  measurement-target: "human CCR5 chemokine receptor (Homo sapiens, UniProt P51681)"
  inhibition at 1 µM / %: 100
- compound: "CCCCOCCOc1ccc(-c2ccc3c(c2)C=C(C(=O)Nc2ccc(CCCn4cnnc4)cc2)CCN3CC(C)C)cc1"
  measurement-target: "human CCR5 chemokine receptor (Homo sapiens, UniProt P51681)"
  inhibition at 1 µM / %: 96
- compound: "CCCCOCCOc1ccc(-c2ccc3c(c2)C=C(C(=O)Nc2ccc(CSc4nncn4C)cc2)CCN3CC(C)C)cc1"
  measurement-target: "human CCR5 chemokine receptor (Homo sapiens, UniProt P51681)"
  inhibition at 1 µM / %: 95
- compound: "CCCCOCCOc1ccc(-c2ccc3c(c2)C=C(C(=O)Nc2ccc([S+]([O-])Cc4cccnc4C)nc2)CCN3CC(C)C)cc1 (stereo not drawn)"
  measurement-target: "human CCR5 chemokine receptor (Homo sapiens, UniProt P51681)"
  inhibition at 1 µM / %: 98
- compound: "CCCCOCCOc1ccc(-c2ccc3c(c2)C=C(C(=O)Nc2ccc(SCc4nncn4CCC)c(C)c2)CCN3CC(C)C)cc1"
  measurement-target: "human CCR5 chemokine receptor (Homo sapiens, UniProt P51681)"
  inhibition at 1 µM / %: 90
- compound: "CCCCOCCOc1ccc(-c2ccc3c(c2)C=C(C(=O)Nc2ccc([S+]([O-])Cc4cccnc4)c(OC)c2)CCN3CC(C)C)cc1 (stereo not drawn)"
  measurement-target: "human CCR5 chemokine receptor (Homo sapiens, UniProt P51681)"
  inhibition at 1 µM / %: 97
- compound: "CCCCOCCOc1ccc(-c2ccc3c(c2)C=C(C(=O)Nc2ccc(OCc4nncn4CCC)cc2)CCN3CC(C)C)cc1"
  measurement-target: "human CCR5 chemokine receptor (Homo sapiens, UniProt P51681)"
  inhibition at 1 µM / %: 97
- compound: "CCCCOCCOc1ccc(-c2ccc3c(c2)C=C(C(=O)Nc2ccc(SCc4nccn4CCCC(N)=O)cc2)CCN3CC(C)C)cc1"
  measurement-target: "human CCR5 chemokine receptor (Homo sapiens, UniProt P51681)"
  inhibition at 1 µM / %: 98
- compound: "CCCCOCCOc1ccc(-c2ccc3c(c2)C=C(C(=O)Nc2ccc([S+]([O-])Cc4cccnc4)cc2)CCN3CC(C)C)cc1 (stereo not drawn)"
  measurement-target: "human CCR5 chemokine receptor (Homo sapiens, UniProt P51681)"
  inhibition at 1 µM / %: 97
- compound: "CCCCOCCOc1ccc(-c2ccc3c(c2)C=C(C(=O)Nc2ccc4nc([S+]([O-])Cc5cncn5CCC)[nH]c4c2)CCN3CC(C)C)cc1 (stereo not drawn)"
  measurement-target: "human CCR5 chemokine receptor (Homo sapiens, UniProt P51681)"
  inhibition at 1 µM / %: 95
- compound: "CCCCOCCOc1ccc(-c2ccc3c(c2)C=C(C(=O)Nc2ccc([S+]([O-])Cc4nccn4CCOC(C)=O)cc2)CCN3CC(C)C)cc1 (stereo not drawn)"
  measurement-target: "human CCR5 chemokine receptor (Homo sapiens, UniProt P51681)"
  inhibition at 1 µM / %: 100
- compound: "CCCCOCCOc1ccc(-c2ccc3c(c2)C=C(C(=O)Nc2ccc([S+]([O-])CC4=NNCN4CCC)nn2)CCN3CC(C)C)cc1 (stereo not drawn)"
  measurement-target: "human CCR5 chemokine receptor (Homo sapiens, UniProt P51681)"
  inhibition at 1 µM / %: 97
- compound: "CCCCOCCOc1ccc(-c2ccc3c(c2)C=C(C(=O)Nc2ccc([S+]([O-])Cc4cccnc4C)cc2)CCN3CC(C)C)cc1 (stereo not drawn)"
  measurement-target: "human CCR5 chemokine receptor (Homo sapiens, UniProt P51681)"
  inhibition at 1 µM / %: 99
